biological target: Human plasma kallikrein (Homo sapiens, UniProt P03952); test: Determination of the inhibition constant Ki for plasma kallikrein (chromogenic substrate S-2302, Dixon plot); conditions: substrate S-2302, 37° C.
Sequence (P03952 391-638 limits assumed): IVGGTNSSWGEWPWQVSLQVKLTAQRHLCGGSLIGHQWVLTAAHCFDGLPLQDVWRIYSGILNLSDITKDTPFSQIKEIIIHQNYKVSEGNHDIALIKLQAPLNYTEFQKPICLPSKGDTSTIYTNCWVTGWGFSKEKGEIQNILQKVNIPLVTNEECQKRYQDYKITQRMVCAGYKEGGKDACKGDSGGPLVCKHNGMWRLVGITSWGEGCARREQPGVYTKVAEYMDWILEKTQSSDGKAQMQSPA
Sequence (P03952 20-390 partner limits assumed): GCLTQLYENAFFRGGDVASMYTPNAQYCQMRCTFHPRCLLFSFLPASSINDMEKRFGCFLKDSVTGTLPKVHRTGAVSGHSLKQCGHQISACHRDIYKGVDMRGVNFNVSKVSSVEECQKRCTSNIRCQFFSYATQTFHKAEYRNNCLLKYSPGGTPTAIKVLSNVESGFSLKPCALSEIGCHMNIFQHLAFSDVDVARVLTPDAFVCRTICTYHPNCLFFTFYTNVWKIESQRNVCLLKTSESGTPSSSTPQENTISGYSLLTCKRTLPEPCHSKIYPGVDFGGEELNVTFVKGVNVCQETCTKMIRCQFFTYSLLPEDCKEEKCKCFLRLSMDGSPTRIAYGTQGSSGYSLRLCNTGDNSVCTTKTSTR
Labelling: Ki reported below 4 nM becomes met; at or above becomes not met.

Example entries and their recorded answers appear below.
>>> classification("CCOc1ccc(C[C@@H](NS(C)(=O)=O)C(=O)N[C@@H](Cc2ccccc2)C(=O)NC2CCN(C(=N)N)CC2)cc1")
"not met"
>>> classification("CCOc1ccc(C[C@@H](NC(=O)c2ccccc2)C(=O)N[C@@H](Cc2ccccc2)C(=O)NC2CCN(C(=N)N)CC2)cc1.O=C(O)C(F)(F)F")
"met"
>>> classification("CCOc1ccc(C[C@@H](N)C(=O)N[C@@H](Cc2ccccc2)C(=O)NC2CCN(C(=N)N)CC2)cc1.O=C(O)C(F)(F)F")
"not met"

Input: Is Ki of `N=C(N)N1CCC(NC(=O)[C@H](Cc2ccccc2)NC(=O)[C@@H](CC2CCCCC2)NCC(=O)O)CC1.O=C(O)C(F)(F)F` strictly below 4 nM?
Output: met

Input: Is Ki of `COC(=O)CN[C@H](CC1CCCCC1)C(=O)N[C@@H](Cc1ccccc1)C(=O)NC1CCN(C(=N)N)CC1` strictly below 4 nM?
Output: not met
